Record form. Attribute: pKi. Fill in for each entry.
- target.or.system: Recombinant barley α-amylase isozyme 1 (AMY1) (Hordeum vulgare, UniProt P00693)
- Construct: made in house
- Sequence (P00693 25-438): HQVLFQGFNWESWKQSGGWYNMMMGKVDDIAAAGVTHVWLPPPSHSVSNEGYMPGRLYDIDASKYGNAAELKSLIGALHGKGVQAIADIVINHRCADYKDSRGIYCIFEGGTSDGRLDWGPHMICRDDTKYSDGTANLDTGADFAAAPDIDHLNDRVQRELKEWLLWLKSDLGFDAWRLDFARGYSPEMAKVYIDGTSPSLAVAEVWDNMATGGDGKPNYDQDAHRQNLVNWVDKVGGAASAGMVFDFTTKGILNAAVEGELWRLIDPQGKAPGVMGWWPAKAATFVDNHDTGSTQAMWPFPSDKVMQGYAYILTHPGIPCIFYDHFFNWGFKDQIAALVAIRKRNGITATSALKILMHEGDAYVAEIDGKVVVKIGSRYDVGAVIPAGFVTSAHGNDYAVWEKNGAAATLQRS
- test.description: Inhibition of barley α-amylase isozyme 1 activity towards DP17 amylose
- Type: biochemical
- conditions: read-out: Ki AMY1 (Barley α-amylase)
- Method: Porcine pancreatic α-amylase (PPA) and bovine serum albumin (BSA) were purchased from Sigma. Amylose EX-1 (DP17; average degree of polymerization 17) was purchased from Hayashibara Chemical Laboratories (Okayama, Japan). […] The enzyme concentration was determined by aid of amino acid analysis as determined using an LKB model Alpha Plus amino acid analyzer. […]
pKi: −log10 of the molar value.

Look over these answered cases.
{"compound": "O=S(=O)(O)O[C@@H](CO)[C@H](O)CN1C[C@@H](O)[C@H](O)[C@H]1CO", "pKi": "< 2.30"}
{"compound": "O=S(=O)(O)O[C@@H](CO)[C@H](O)CN1C[C@H](O)[C@@H](O)[C@H]1CO", "pKi": "< 2.30"}
{"compound": "OC1C[S+]2CCCC2[C@@H](O)C1O (some centres unmarked)", "pKi": "< 2.30"}
{"compound": "O=S(=O)([O-])O[C@H](CO)[C@@H](O)C[S@+]1C[C@@H](O)[C@H](O)[C@H]1CO", "pKi": "< 2.30"}

Field: pKi. Fill in for each record below.
1. O=S(=O)([O-])O[C@@H](CO)[C@H](O)C[S@+]1C[C@H](O)[C@@H](O)[C@H]1CO
2. O=S(=O)([O-])O[C@H](CO)[C@@H](O)C[S@@+]1C[C@H](O)[C@@H](O)[C@@H]1CO
3. O=S(=O)(O)O[C@H](CO)[C@@H](O)CN1C[C@H](O)[C@@H](O)[C@@H]1CO
4. O=S(=O)([O-])O[C@@H](CO)[C@H](O)C[S@+]1C[C@@H](O)[C@H](O)[C@H]1CO

1. 3.96
2. < 2.30
3. < 2.30
4. 4.82
